Could you please report measured slope for the items listed next?
# testedTarget: Alpha-2C adrenergic receptor (Homo sapiens)
# measurementDescription: compounds altering alpha2C-coupled GIRK flux – cell-based, HEK293 alpha2C/GIRK1/2, thallium flux, primary screen (AID 624);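 further: slope of fluorescence ratio to pre-addition baseline per second over 15 to 24 s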
# studyConditions: thallium flux BTC fluorescence, at 10 µM, actives lie on both sides
Calls of active or inactive are those of the source.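 How the source made its calls: active means fluorescence slope after compound addition differing from the mean of all screened samples at 99.7% confidence, in either direction; inactive means the rest.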

Ask: Name the reported slope value associated with the compound O=C(Oc1ccc(Cl)cc1N1C(=O)CCC1=O)c1ccco1
Reply: 0.00607 (inactive)

Ask: Name the reported slope value associated with the compound O=C1c2ccccc2C(Nc2ccc3c(c2)OCO3)N1Cc1ccc2c(c1)OCO2 (centres undefined)
Reply: 0.00394 (inactive)

Ask: Name the reported slope value associated with the compound NC(=O)C1(N2CCCCC2)CCN(CC(=O)Nc2cc(Cl)ccc2Cl)CC1
Reply: 0.00416 (inactive)

Ask: Name the reported slope value associated with the compound CS(=O)(=O)N(CC(=O)Nc1ccc2c(c1)OCO2)Cc1ccc(Cl)cc1
Reply: 0.00445 (inactive)

---

# testedTarget: Voltage-gated potassium channel subunit beta-2 (Rattus norvegicus)
# measurementDescription: enhancers of rat Kvbeta2 NADPH turnover – biochemical, NADPH fluorescence, primary screen (AID 623);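 further: fluorescence intensity change per second fitted from 20 to 320 s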
# studyConditions: Recombinant KvBeta, NADPH fluorescence decrease slope, 10 min; at 10 µM; stronger effect = lower value
measuredParameter: NADPH fluorescence slope
Please state the value as a number alone, without comment.

Ask: Name the reported NADPH fluorescence slope value associated with the molecule COc1ccc2c(-c3cccnc3)cc(=O)[nH]c2c1
Reply: -9.1e-05

Ask: Name the reported NADPH fluorescence slope value associated with the molecule COc1ccccc1NC(=O)CSc1nnc(Cn2nnc(-c3ccccc3)n2)n1-c1ccccc1
Reply: -5.2e-05

Ask: Name the reported NADPH fluorescence slope value associated with the molecule CCC(=O)N1CCN(CCN=CC2=C(O)CC(C)(C)CC2=O)CC1
Reply: -2.4e-05

Ask: Name the reported NADPH fluorescence slope value associated with the molecule CON(C)c1nc(Oc2ccc(=O)[nH]n2)nc(N(C)C)n1
Reply: 1.4e-05

Ask: Name the reported NADPH fluorescence slope value associated with the molecule CCCCSc1nc2c(cnn2-c2ccc(Cl)cc2)c(=O)[nH]1
Reply: -9.3e-05

Ask: Name the reported NADPH fluorescence slope value associated with the molecule COc1cc2[nH]c(=O)n(CCC(=O)N3CCc4ccccc4C3)c(=O)c2cc1OC
Reply: -9.5e-06

Ask: Name the reported NADPH fluorescence slope value associated with the molecule O=C(CSc1nc2ccccc2nc1SCC(=O)N1CCOCC1)N1CCOCC1
Reply: -4.2e-05

Ask: Name the reported NADPH fluorescence slope value associated with the molecule CC(C)c1ccc(CNc2ccc(N3CCOCC3)cc2)cc1
Reply: -4.8e-05

Ask: Name the reported NADPH fluorescence slope value associated with the molecule O=C(Nc1ccc(N2CCCC2)cc1)c1ccc(Br)o1
Reply: -6.5e-05

Ask: Name the reported NADPH fluorescence slope value associated with the molecule CC1=C(C(=O)Nc2ccccc2C)C(c2ccc(C)o2)N2C(=O)CSC2=N1 (stereo not given)
Reply: -1.8e-05

Ask: Name the reported NADPH fluorescence slope value associated with the molecule Cc1nc(CNS(=O)(=O)c2cc(C)c(C)cc2C)cs1
Reply: -5.1e-05

Ask: Name the reported NADPH fluorescence slope value associated with the molecule Cc1ccc(N(Cc2ccco2)C(=O)c2cccc(S(=O)(=O)N(C)C)c2)cc1
Reply: -4.3e-06

Ask: Name the reported NADPH fluorescence slope value associated with the molecule O=C(Cc1c(F)cccc1Cl)Nc1ccncc1
Reply: 2.5e-05

Ask: Name the reported NADPH fluorescence slope value associated with the molecule COC(=O)CSc1nnc(CSc2nc(C)cc(C)n2)n1Cc1ccco1
Reply: -2.4e-05

Ask: Name the reported NADPH fluorescence slope value associated with the molecule O=C(CCn1c(=O)c2sccc2n(CC(=O)NCc2ccco2)c1=O)NCc1ccccc1
Reply: -8.5e-05

From: PubChem BioAssay
